# system tested: T1, human GLP-1 receptor (human, UniProt P43220 24-463)
# T1 construct: whole, on cells
# assay details: 125I-GLP-1 displacement, membranes of CHOK1 cells expressing human GLP-1 receptor
No end group written: not given here.
property measured: pIC50
Give bare numbers, as −log10 of the molar value.

Completed entries (count: 3):
HGEGTFTSDVSSYLEGCAAKEFIAWLVKGRGSSGAPPPS (Unconjugated peptide) [HGEGTFTSDVSSYLEGCAAKEFIAWLVKGRGSSGAPPPS (SEQ ID NO: 7)] : 7.00
HGEGTFTSDVSSYLEGCAAKEFIAWLKNGGPSSGAPPPS (not fully specified (residue 17); also: dimer: two peptides on one forked PEG-(maleimide)2) [cgGLP-15 (SEQ ID NO: 8 + 20k PEG dimer)] : 6.52
HGEGTFTSDVSSYLEGCAAKEFIAWLKNGGPSSGAPPPS (Unconjugated peptide) [HGEGTFTSDVSSYLEGCAAKEFIAWLKNGGPSSGAPPPS (SEQ ID NO: 8)] : 7.00

Hey, can you go through the list below and give me pIC50 for every item?
1. HGEGTFTSDVSSYLEGCAAKEFIAWLVKGRG (Unconjugated peptide) [HGEGTFTSDVSSYLEGCAAKEFIAWLVKGRG (SEQ ID NO: 6)]
2. HGEGTFTSDVSSYLEGCAAKEFIAWLVKGRG (not fully specified (residue 17); also: dimer: two peptides on one mal-PEG-mal, one at each end) [cgGLP-3 (SEQ ID NO: 6 + 8k PEG dumbbell)]
3. HGEGTFTSDVSSYLEGCAAKEFIAWLVKGRGSSGAPPPS (not fully specified (residue 17); also: dimer: two peptides on one forked PEG-(maleimide)2) [cgGLP-14 (SEQ ID NO: 7 + 20k PEG dimer)]

Output:
1: 7.15; 2: 7.08; 3: 6.52

Measured pIC50, HGEGTFTSDVSSYLEGC(PEG 20 kDa)AAKEFIAWLVKGRGSSGAPPPS [cgGLP-12 (SEQ ID NO: 7 + 20k PEG monomer)] : 6.00
